// values below are reported inhibition
experiment: YAP1 pathway inhibitors via CTGF transcript, primary screen, DLD1 colon cancer cells, RT-qPCR, single point (AID 743449); conditions: DLD1 CTGF mRNA qPCR, 24 h; at 12.5 µM; stronger effect = higher value;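 further: 0% = neutral control wells and 100% = dasatinib control wells; higher means stronger suppression of CTGF expression like dasatinib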
Among all 9,900 compounds or so, about 90 (0.9%) were called active. Not shown: some 2% with an inconclusive outcome. The entries come from a sample that favours actives as a whole.
reported property: inhibition (%)

> print(dat)
                    structure.smiles.string  reported.property  result.number
1  OC[C@@H]1[C@@H](c2ccc(-c3cccnc3)cc2)[C@H]2CN(Cc3ccccn3)CCCCN12         inhibition          -1.92
2  N#C[C@@H]1[C@H](c2ccc(-c3cccc(F)c3)cc2)[C@@H](CO)N1C(=O)CN1CCOCC1         inhibition          0.153
3  CN1C(=O)c2cc(NC(=O)NCc3ccccc3)ccc2OC[C@@H]2O[C@@H](CC(=O)NCC3CCCCC3)CC[C@H]21         inhibition          -20.9
4  O=C(C[C@H]1CC[C@H]2[C@@H](COC[C@@H](O)CN2C(=O)c2cccnc2)O1)NCC1CC1         inhibition           6.53
5  O=C(Nc1ccc(C(F)(F)F)cc1)Nc1ccc2c(c1)[C@H]1C[C@H](CC(=O)N3CCc4ccccc4C3)O[C@H](CO)[C@H]1O2         inhibition           41.9
6  C[C@@H]1CCCCO[C@@H](CN(C)C(=O)Nc2ccccc2)[C@H](C)CN([C@@H](C)CO)C(=O)c2cc(NC(=O)Nc3ccccc3)ccc2O1         inhibition           16.9
7  COc1ccccc1NC(=O)N[C@H]1CC[C@H](CCNS(=O)(=O)c2ccc(Cl)cc2)O[C@@H]1CO         inhibition           8.99
